Provenance of the data: ChEMBL document CHEMBL1212734

Provide the reported MIC50 of each item.
Test system: Stenotrophomonas maltophilia
Test: Antibacterial activity against Stenotrophomonas maltophilia by broth dilution method
Type: functional
Numbers only, in µg/mL.

Solved cases (2 shown):
molecule	experimental_system	endpoint_unit	observed
C[C@H]1COc2c(N3CCN(C)CC3)c(F)cc3c(=O)c(C(=O)O)cn1c23.C[C@H]1COc2c(N3CCN(C)CC3)c(F)cc3c(=O)c(C(=O)O)cn1c23.O [LEVOFLOXACIN]	Stenotrophomonas maltophilia	µg/mL	2
O=C(O)c1cn(C2CC2)c2cc(N3CCNCC3)c(F)cc2c1=O [CIPROFLOXACIN]	Stenotrophomonas maltophilia	µg/mL	4

Read the next record carefully.
Documented MIC50 of NCC[C@H](O)C(=O)N[C@@H]1C[C@H](N)[C@@H](O[C@H]2O[C@H](CN)[C@@H](O)[C@H](O)[C@H]2O)[C@H](O)[C@H]1O[C@H]1O[C@H](CO)[C@@H](O)[C@H](N)[C@H]1O [AMIKACIN] : 128
